# inhibition at 0.25 h annotations
Molecular target: CYP1A2 (Homo sapiens, UniProt P05177)
Sequence (P05177 whole entry): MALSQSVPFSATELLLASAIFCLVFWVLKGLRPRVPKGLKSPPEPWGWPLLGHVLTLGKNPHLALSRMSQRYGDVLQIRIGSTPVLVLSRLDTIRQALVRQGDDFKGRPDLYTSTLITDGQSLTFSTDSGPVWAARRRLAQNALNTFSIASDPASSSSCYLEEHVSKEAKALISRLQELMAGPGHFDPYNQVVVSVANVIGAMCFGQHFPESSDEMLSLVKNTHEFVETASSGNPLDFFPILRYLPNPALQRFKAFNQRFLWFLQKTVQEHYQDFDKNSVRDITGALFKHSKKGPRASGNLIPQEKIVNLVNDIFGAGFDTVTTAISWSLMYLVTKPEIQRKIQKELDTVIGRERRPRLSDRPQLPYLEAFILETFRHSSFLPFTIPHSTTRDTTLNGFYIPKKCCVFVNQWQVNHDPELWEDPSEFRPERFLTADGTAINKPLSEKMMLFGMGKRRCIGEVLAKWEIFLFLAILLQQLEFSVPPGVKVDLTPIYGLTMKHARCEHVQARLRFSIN
Experiment: Inhibition of recombinant human CYP1A2 expressed in insect cells at <10 uM using EOMCC as substrate pretreated for 10 mins followed by substrate addition measured every minute for 15 mins in presence of NADP+ by fluorescence assay relative to control
Assay type: ADME
Conditions: probe EOMCC
metricName: inhibition at 0.25 h

INSERT INTO results (structure, assayvalue) VALUES
  ('COc1ccc(CCNc2c3c(nc4cc(Cl)ccc24)CCCC3)cc1OC', '< 50%'),
  ('COc1ccc(CNc2c3c(nc4cc(Cl)ccc24)CCCC3)cc1OC', '< 50%'),
  ('COc1ccc(CNc2c3c(nc4ccccc24)CCCC3)cc1OC', '< 50%');
